- System: Fusarium solani
- Assay: Mycelial growth test
- Type: cell-based
- Reported Conditions: Fusarium solani, 72 h, PS, 5 ppm, 72 hours; read-out: Percent Fungus Growth Inhibition
Grouping by measured inhibition at 5 ppm is done with the following cut points: bin A: < 20%; bin B: ≥ 20% and < 40%; bin C: ≥ 40%

1. CC(=O)c1cccc(Oc2nsnc(Cl)c2=O)c1; bin B
2. O=c1c(Cl)nsnc1Oc1c(Cl)cc(Cl)cc1Cl; bin C
3. O=c1c(Cl)nsnc1Oc1cc(Cl)cc(Cl)c1; bin C
4. O=C(OCc1ccccc1)Oc1ccc(Oc2nsnc(Cl)c2=O)cc1; bin A
5. CNC(=O)Nc1ccc(Oc2nsnc(Cl)c2=O)cc1; bin A
6. COc1cc(Oc2nsnc(Cl)c2=O)cc(OC)c1C(C)=O; bin A
7. O=C1C2CC=CCC2C(=O)N1SC(Cl)(Cl)Cl (centres unmarked) [Captan, reference compound]; bin A
8. Cc1ccc(Oc2nsnc(Cl)c2=O)c(C)c1; bin A
9. CC(=O)c1ccccc1Oc1nsnc(Cl)c1=O; bin A
10. CC(=O)Nc1ccc(Oc2nsnc(Cl)c2=O)cc1; bin A
11. O=c1c(Cl)nsnc1Oc1ccc(F)cc1; bin A
12. CC(=O)Nc1cccc(Oc2nsnc(Cl)c2=O)c1; bin B
13. COc1cc(Cl)cc(Oc2nsnc(Cl)c2=O)c1; bin C
14. C[S+]([O-])c1ccc(Oc2nsnc(Cl)c2=O)cc1 (centres unmarked); bin A
15. CC(=O)c1ccc(Oc2nsnc(Cl)c2=O)cc1; bin B
16. O=c1c(Cl)nsnc1Oc1ccc(O)cc1; bin B
17. O=c1c(Cl)nsnc1Oc1cccc(Cl)c1; bin B

====

- System: Uromyces phaseoli
- Assay: Spore germination test
- Assay type: cell-based
- Reported Conditions: UP, 40 ppm, 48 hours
Measured Spore Germination Rating of individual entries
Measurement Kind: Spore Germination Rating

1) N#Cc1ccc(Oc2nsnc(Cl)c2=O)cc1 [Compound 10]; 0 (0-10)
2) C[S+]([O-])c1ccc(Oc2nsnc(Cl)c2=O)cc1 (stereo not shown) [Compound 40]; 1 (10-40)
3) CC(=O)Nc1cccc(Oc2nsnc(Cl)c2=O)c1 [Compound 42]; 0 (0-10)
4) O=c1c(Cl)nsnc1Oc1c(Cl)cc(Cl)cc1Cl [Compound 30]; 0 (0-10)
5) Cc1ccc(Cl)c(Oc2nsnc(Cl)c2=O)c1 [Compound 56]; 0 (0-10)
6) Cc1cc(Cl)c(Oc2nsnc(Cl)c2=O)cc1C [Compound 58]; 0 (0-10)
7) Cc1ccc(Oc2nsnc(Cl)c2=O)c(Br)c1 [Compound 57]; 0 (0-10)
8) Nc1ccc(Oc2nsnc(Cl)c2=O)cc1 [Compound 26]; 2 (40-60)
9) CNC(=O)Nc1ccc(Oc2nsnc(Cl)c2=O)cc1 [Compound 28]; 2 (40-60)
10) CC(=O)c1cccc(Oc2nsnc(Cl)c2=O)c1 [Compound 48]; 0 (0-10)
11) O=c1c(Cl)nsnc1Oc1c(Cl)cccc1Cl [Compound 18]; 0 (0-10)
12) Cc1cc(Oc2nsnc(Cl)c2=O)ccc1Cl [Compound 54]; 0 (0-10)
13) Cc1cc(Cl)ccc1Oc1nsnc(Cl)c1=O [Compound 55]; 0 (0-10)

====

Measured Spore Germination Rating of individual entries
- System: Botrytis cinerea
- Assay: Spore germination test
- Format: cell-based
- Reported Conditions: BC, 1.0 ppm, 48 hours
Measurement Kind: Spore Germination Rating

1. O=C(Nc1ccccc1)Nc1ccc(Oc2nsnc(Cl)c2=O)cc1; 3 (60-80)
2. CC(=O)Nc1ccc(Oc2nsnc(Cl)c2=O)cc1; 4 (80-100)
3. COc1cc(Cl)cc(Oc2nsnc(Cl)c2=O)c1; 4 (80-100)
4. C[S+]([O-])c1ccc(Oc2nsnc(Cl)c2=O)cc1 (stereo not shown); 4 (80-100)
5. O=c1c(Cl)nsnc1Oc1cccc(Cl)c1Cl; 4 (80-100)
6. CCOC(=O)c1ccc(Oc2nsnc(Cl)c2=O)cc1; 4 (80-100)
7. O=C(O)c1ccc(Oc2nsnc(Cl)c2=O)cc1; 4 (80-100)
8. CC(=O)c1ccccc1Oc1nsnc(Cl)c1=O; 1 (10-40)
9. O=c1c(Cl)nsnc1Oc1cc(Cl)cc(Cl)c1; 4 (80-100)
10. O=c1c(Cl)nsnc1Oc1ccccc1Br; 2 (40-60)

====

- Tested on: Pyricularia oryzae
- Assay: microbe, parasite or virus in culture
- Type: cell-based
- Reported Conditions: Pyricularia oryzae, 72 h, read-out: Percent Fungus Growth Inhibition, PO, 20 ppm, 72 hours
Measurement Kind: inhibition at 20 ppm

1) C[S+]([O-])c1ccc(Oc2nsnc(Cl)c2=O)cc1 (stereo not shown); 42%
2) COc1cc(Cl)cc(Oc2nsnc(Cl)c2=O)c1; 100%
3) CC(=O)c1cccc(Oc2nsnc(Cl)c2=O)c1; 100%
4) O=c1c(Cl)nsnc1Oc1ccccc1; 56%
5) Cc1cc(Oc2nsnc(Cl)c2=O)cc(C)c1Cl; 50%
6) O=c1c(Cl)nsnc1Oc1c(Cl)cc(Cl)cc1Cl; 84%
7) Cc1ccc(Oc2nsnc(Cl)c2=O)c(C)c1; 46%
8) Cc1ccccc1Oc1nsnc(Cl)c1=O; 54%
9) O=c1c(Cl)nsnc1Oc1ccc(O)cc1; 100%
10) N#Cc1c(Cl)c(Cl)c(Cl)c(C#N)c1Cl [Chlorothalonil, reference compound]; 41%
11) O=C(O)c1ccc(Oc2nsnc(Cl)c2=O)cc1; 11%
12) N#CCc1ccc(Oc2nsnc(Cl)c2=O)cc1; 100%
13) CC(C)(C)c1ccc(Oc2nsnc(Cl)c2=O)cc1; 0%
14) Cc1cc(Oc2nsnc(Cl)c2=O)ccc1Cl; 56%
15) O=c1c(Cl)nsnc1Oc1ccc(Cl)cc1Cl; 29%
16) CC(=O)Nc1cccc(Oc2nsnc(Cl)c2=O)c1; 32%
17) Cc1cccc(Oc2nsnc(Cl)c2=O)c1; 50%
18) O=c1c(Cl)nsnc1Oc1cccc(Cl)c1; 74%
19) N#Cc1ccc(Oc2nsnc(Cl)c2=O)cc1; 58%
20) O=C(O)Cc1ccccc1Oc1nsnc(Cl)c1=O; 0%
21) CC(=O)c1ccc(Oc2nsnc(Cl)c2=O)cc1; 100%
22) COc1cc(Oc2nsnc(Cl)c2=O)cc(OC)c1C(C)=O; 50%

====

- Test system: Erysiphe polygoni
- Assay: Spore germination test
- Type: cell-based
- Reported Conditions: EP, 10 ppm, 48 hours
Measurement Kind: Spore Germination Rating

1. CS(=O)(=O)c1ccc(Oc2nsnc(Cl)c2=O)cc1; 1 (10-40)
2. Cc1ccc(Oc2nsnc(Cl)c2=O)c(C)c1; 3 (60-80)
3. Cc1ccc(Oc2nsnc(Cl)c2=O)cc1; 4 (80-100)
4. O=c1c(Cl)nsnc1Oc1ccc(O)cc1; 2 (40-60)
5. O=C(OCc1ccccc1)Oc1ccc(Oc2nsnc(Cl)c2=O)cc1; 4 (80-100)
6. COc1cc(Cl)cc(Oc2nsnc(Cl)c2=O)c1; 0 (0-10)
7. CCOC(=O)c1ccc(Oc2nsnc(Cl)c2=O)cc1; 2 (40-60)
8. O=c1c(Cl)nsnc1Oc1ccc(Br)cc1; 0 (0-10)
9. O=c1c(Cl)nsnc1Oc1ccc(F)cc1; 0 (0-10)
10. CC(=O)c1ccc(Oc2nsnc(Cl)c2=O)cc1; 4 (80-100)
11. CC(=O)Nc1cccc(Oc2nsnc(Cl)c2=O)c1; 4 (80-100)
12. Cc1cc(Cl)c(Oc2nsnc(Cl)c2=O)cc1C; 0 (0-10)
13. Cc1ccccc1Oc1nsnc(Cl)c1=O; 3 (60-80)
14. CC(=O)Nc1ccccc1Oc1nsnc(Cl)c1=O; 4 (80-100)
15. CCCCNC(=O)n1c(NC(=O)OC)nc2ccccc21 [Benomyl, reference compound]; 0 (0-10)
16. CC(=O)Nc1ccc(Oc2nsnc(Cl)c2=O)cc1; 4 (80-100)
17. CC(C)(C)c1ccc(Oc2nsnc(Cl)c2=O)cc1; 2 (40-60)
18. Nc1ccc(Oc2nsnc(Cl)c2=O)cc1; 4 (80-100)
19. O=c1c(Cl)nsnc1Oc1ccc([N+](=O)[O-])cc1Cl; 0 (0-10)
20. O=C(Nc1ccccc1)Nc1ccc(Oc2nsnc(Cl)c2=O)cc1; 4 (80-100)
21. O=c1c(Cl)nsnc1Oc1cccc(Cl)c1; 0 (0-10)
22. Cc1cc(Oc2nsnc(Cl)c2=O)cc(C)c1Br; 1 (10-40)
23. O=c1c(Cl)nsnc1Oc1c(Cl)cc(Cl)cc1Cl; 0 (0-10)
24. O=C(O)Cc1ccccc1Oc1nsnc(Cl)c1=O; 4 (80-100)
25. O=c1c(Cl)nsnc1Oc1cccc2ccccc12; 0 (0-10)
26. COc1cc(Oc2nsnc(Cl)c2=O)cc(OC)c1C(C)=O; 1 (10-40)
27. Cc1cc(C)cc(Oc2nsnc(Cl)c2=O)c1; 0 (0-10)
28. O=c1c(Cl)nsnc1Oc1ccc(Cl)c(Cl)c1; 1 (10-40)
29. Cc1cccc(C)c1Oc1nsnc(Cl)c1=O; 0 (0-10)
30. O=c1c(Cl)nsnc1Oc1c(Cl)c(Cl)c(Cl)c(Cl)c1Cl; 1 (10-40)
31. O=c1c(Cl)nsnc1Oc1cccc(C(F)(F)F)c1; 0 (0-10)
32. COc1ccc(Oc2nsnc(Cl)c2=O)cc1; 4 (80-100)
33. N#Cc1ccc(Oc2nsnc(Cl)c2=O)cc1; 2 (40-60)
34. COc1ccc(Cl)c(Oc2nsnc(Cl)c2=O)c1; 0 (0-10)
35. O=C(Nc1ccccc1)Oc1ccc(Oc2nsnc(Cl)c2=O)cc1; 4 (80-100)
36. N#CCc1ccc(Oc2nsnc(Cl)c2=O)cc1; 4 (80-100)
37. O=C(O)c1ccc(Oc2nsnc(Cl)c2=O)cc1; 4 (80-100)
38. CSc1ccc(Oc2nsnc(Cl)c2=O)cc1; 2 (40-60)
39. Cc1ccc(Cl)c(Oc2nsnc(Cl)c2=O)c1; 0 (0-10)
40. Cc1cc(Oc2nsnc(Cl)c2=O)cc(C)c1Cl; 1 (10-40)
41. Cc1cc(Cl)ccc1Oc1nsnc(Cl)c1=O; 0 (0-10)
42. Cc1ccc(Oc2nsnc(Cl)c2=O)c(Br)c1; 0 (0-10)
43. Cc1cccc(Oc2nsnc(Cl)c2=O)c1; 2 (40-60)

// provenance: patent US4450269A
